The entries below are paired with their reported growth.
tested on: MDA-MB-468 breast; assay: NCI-60 one-dose screen, 48 h (100 = growth as untreated, 0 = no growth, -100 = all killed); details: 10 µM unless noted
This is part of a sample that, as a whole, favours compounds with a hit. Of some 83,000 tested, about 20% had one in any assay. The source made the active and inactive calls. The calls were made as follows: active = growth percent below 10; inactive = the rest.
property_measured: growth

>>> observed_result("COc1cc2nccc(Oc3ccc(NC(=O)C4(C(=O)Nc5ccc(F)cc5)CC4)cc3)c2cc1Oc1ccc(N)cn1")
"31.7% (inactive)"
>>> observed_result("CCN(CC)c1ccc(N=Nc2cc(Cl)ccc2Cl)c(NC(=O)CCC(=O)O)c1")
"107% (inactive)"
>>> observed_result("N[C@@H](Cc1cn(-c2c3ccccc3nc3ccccc23)nn1)C(=O)O")
"96.8% (inactive)"
>>> observed_result("CCOC(=O)/C=C1\\S/C(=N\\Nc2cc(=O)[nH]c3ccccc23)N(c2ccccc2)C1=O")
"105% (inactive)"
>>> observed_result("COC(=O)[C@@]12CC[C@@H](C)[C@]3(C[C@@H](c4ccoc4)OC3=O)[C@H]1CC[C@@H]1O[C@@]12C")
"106% (inactive)"
>>> observed_result("CC[C@]12C=CCN3CC[C@@]4(c5ccc(OC)cc5N(C)[C@H]4[C@@](O)(C(=O)OC)[C@@H]1OC(=O)CCCN1CCOCC1)[C@@H]32")
"108% (inactive)"
>>> observed_result("Cn1cc(-c2nc(-c3cn(C)c4ncccc34)cs2)c2cc(F)ccc21")
"-8.46% (active)"
>>> observed_result("COCCn1c(-c2csc(-c3cn(C)c4ccc(OC)cc34)n2)cc2cccnc21")
"37.9% (inactive)"
>>> observed_result("COc1ccc(Nc2ncc(Br)c(NCCCNC(=O)C3CCCC3)n2)cc1")
"54.5% (inactive)"
>>> observed_result("O=C(CN1C(=O)NC2NC(=O)NC21)N/N=C/c1cccc([N+](=O)[O-])c1 (stereo unspecified)")
"97.6% (inactive)"
>>> observed_result("O=S(=O)(Nc1ccc2c(c1)OC(F)(F)O2)c1ccc(-c2cnc(C3CC3)o2)cc1")
"15.3% (inactive)"

###

test system: MDA-MB-468 breast; test: NCI-60 one-dose screen, 48 h (100 = growth as untreated, 0 = no growth, -100 = all killed); details: 10 µM unless noted
Compounds without any hit were thinned out: in the full panel of roughly 83,000, 20% have a hit. Calls of active or inactive are those of the source. How the source made its calls: active means growth percent below 10; inactive means the rest.
property_measured: growth

>>> observed_result("Fc1cc2[nH]ncc2c2c3c(c(-c4cn[nH]c4C(F)(F)F)nc12)CCCC3")
"-20.3% (active)"
>>> observed_result("COc1cccc(Oc2ccccc2NC(=O)CNC(=O)c2cccc3ccccc23)c1")
"12.1% [5 µM] (inactive)"
>>> observed_result("N#Cc1c(-c2cccc(F)c2)cc(-c2cccnc2)[nH]c1=O")
"106% (inactive)"

###

The entries below are paired with their reported growth.
tested on: MDA-MB-468 breast; experiment: NCI-60 one-dose screen, 48 h (100 = growth as untreated, 0 = no growth, -100 = all killed); conditions: 10 µM unless noted
The panel holds about 83,000 compounds, 20% with a hit somewhere; the sample as a whole holds those more often. Calls of active or inactive are those of the source. How the source made its calls: active means growth percent below 10; inactive means the rest.
property_measured: growth

>>> observed_result("COc1c(-c2cc(-c3ccc(C)o3)[nH]c(=O)n2)c(O)cc2occc12")
"25.8% (inactive)"
>>> observed_result("COc1cc(-c2ccc3ncnc(NCc4ccccc4)c3c2)cnc1OC")
"15.8% (inactive)"
>>> observed_result("Cc1c2c(cc[n+]1Cc1ccccc1)c1ccc(OCc3ccccc3)cc1n2Cc1ccccc1")
"-42.3% (active)"
>>> observed_result("Cc1cc2nc3c4ccc(Br)cc4n(CCN(C)C)c3nc2cc1C")
"-6.68% (active)"
>>> observed_result("CC(=O)Oc1cc(C)c(OC(C)=O)c(C)c1C")
"47.1% (inactive)"
>>> observed_result("COc1ccc(CCOc2cc3c(cc2OC)CCN(C(=O)NCc2cocn2)C3c2ccc(C)cc2C)cc1 (configuration not stated)")
"3.86% (active)"
>>> observed_result("N#Cc1c(-c2cccs2)cc(-c2cnccn2)nc1SCC(=O)c1ccc(F)cc1")
"101% (inactive)"
>>> observed_result("O=C(/C=C(/C=C/c1csc2ccccc12)OB(F)F)/C=C/c1csc2ccccc12")
"-3.4% (active)"
>>> observed_result("COc1ccc2c(c1)c(-c1nn3c(=O)cc(-c4ccccc4)nc3s1)cn2C")
"20.1% (inactive)"
>>> observed_result("Cc1ncc(C(=O)Nc2ccc(CN3CCN(C)CC3)c(C(F)(F)F)c2)cc1C#Cc1cnc(N)c2cnccc12")
"-6.82% (active)"
>>> observed_result("C=CCc1c2c(c(OC)c3ccoc13)C(=O)/C(=C/c1ccccc1OC)O2")
"-3.89% (active)"
>>> observed_result("COc1ccc(-c2nc(SCC(C)C)nc(Nc3ccc([N+](=O)[O-])cc3)c2C#N)cc1")
"93.4% (inactive)"
>>> observed_result("CC(c1ccccc1)N1CSc2nc3ncncc3n2C1 (configuration not stated)")
"-0.761% (active)"
>>> observed_result("O=C(/C=C/c1cccnc1)c1ccccc1")
"99.2% (inactive)"
>>> observed_result("Cc1nc2sccn2c1-c1csc(Nc2ccccc2Cl)n1")
"19% (inactive)"
>>> observed_result("CC/C=C\\C[C@H]1C/C=C2/C(=O)C=C[C@@H]2C/C=C\\CCCC(=O)O1")
"-33.6% (active)"
>>> observed_result("COc1ccc(/C=C2/SC(=Nc3c(C)nn(-c4ccccc4)c3N)NC2=O)cc1")
"7.17% (active)"
>>> observed_result("COc1cc(C2CC(c3cccc(Nc4ccncc4)c3)=NN2c2ccccc2)cc(OC)c1OC (configuration not stated)")
"25.8% (inactive)"
>>> observed_result("CCN1CCN(C(=S)SCC(=O)Nc2nc3ccc(OC)cc3s2)CC1")
"97.7% (inactive)"
>>> observed_result("O=C(c1ccc(Cl)cc1Cl)N1c2ccccc2Sc2ccccc21")
"51.4% (inactive)"
>>> observed_result("COC(=O)[C@]12CC[C@@H](C)[C@H](C)[C@@H]1C1=CC[C@@H]3[C@@]4(C)C(C=O)=C[C@@](C)(COC(=O)/C=C/c5ccccc5)[C@@H]4[C@H](O)C[C@@]3(C)[C@]1(C)CC2")
"14.9% (inactive)"
>>> observed_result("CCc1cc2c(cc1Cl)nc1c(=O)[nH]c(=O)nc-1n2CCOCC(C)C")
"43.8% (inactive)"
>>> observed_result("CC12CC(C#N)CCC1O2 (configuration not stated)")
"111% (inactive)"
>>> observed_result("CCCCCCCNc1nc(C=O)ncc1-c1ccc(C(F)(F)F)cc1")
"103% (inactive)"
>>> observed_result("CS(=O)(=O)Nc1ccc(Nc2c3ccccc3nc3cc([N+](=O)[O-])ccc23)cc1")
"-43.3% (active)"
>>> observed_result("Cc1ccc(N2CCN(C3=C(Cl)C(=O)c4ncccc4C3=O)CC2)cc1")
"-63.9% (active)"
>>> observed_result("COc1cc2nc(Nc3cccc(C(=O)O)c3)nc(N)c2cc1OC")
"108% (inactive)"

###

tested on: MDA-MB-468 breast; assay: NCI-60 one-dose screen, 48 h (100 = growth as untreated, 0 = no growth, -100 = all killed); conditions: 10 µM unless noted
The panel holds about 83,000 compounds, 20% with a hit somewhere; the sample as a whole holds those more often.
property_measured: growth (%)

>>> observed_result("COc1ccc(C2C(C#N)=C(/N=C/c3ccc(Cl)cc3)Oc3c2sc2c(C)cccc32)cc1 (stereo not drawn)")
21.4
>>> observed_result("Cc1cc(N2CCCCC2)nc(N(CCCNc2ccnc3cc(Cl)ccc23)Cc2ccco2)n1")
6.73
>>> observed_result("COc1cc(-c2nc(SCCC(C)C)nc(Nc3ccccc3)c2C#N)cc(OC)c1OC")
112
>>> observed_result("[O-]/[N+](=C\\c1ccccc1)CC1(O)CCCCC1")
108
>>> observed_result("CCOc1c(B(O)O)cccc1-c1nc2ccc3[nH]ncc3c2c2c1CCCC2")
51.1
>>> observed_result("CC1=C(C#N)C(C)(C)C(C#N)=C(C)N1")
98.6
>>> observed_result("S=c1[nH]cccc1-c1nnc2n1Nc1nc3ccccc3cc1CS2")
102
>>> observed_result("CCS(=O)(=O)Nc1ccc(C(=O)CC2(O)C(=O)Nc3ccccc32)cc1 (stereo not drawn)")
95.4
>>> observed_result("O=c1oc2ccc(Cl)cc2c(=O)n1-c1ccc(Cl)cc1F")
2.01
>>> observed_result("O=C(/C=C/C12c3ccccc3C(c3ccccc31)C1C(=O)N(c3ccccc3)C(=O)C12)c1ccccc1 (stereo not drawn)")
1.31
>>> observed_result("Cc1ccc(NC(=O)/C=C/c2ccccc2)c(C(N)=O)c1")
22.5
>>> observed_result("CCN1CCN(Cc2ccc(Cc3ncc(F)c(-c4cc(F)c5nc(C)n(C(C)C)c5c4)n3)nc2)CC1")
80.6
>>> observed_result("CCOC(=O)C#Cc1c(C(=O)OCC)nnn1Cc1ccc(C(F)(F)F)cc1")
-25.7
